# credit: the supplement of paper PMC10567573

B1: NP_116010.1 (parent)
chain: HSLRAVSTDPPHHDHHDEFCLMP

Variants of: B1
Experiment: protein stability index of a GFP-peptide fusion (GPS, HEK-293T) (PSI 1-6); higher = more stable;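 further: lentivirally expressed fusion library, cells FACS-sorted into six equal-sized GFP/DsRed ratio bins, PSI computed from sequencing read fractions per bin weighted by bin number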
Conditions: c terminus: native
Quick reference: protein stability index of the listed items.
reportedMetric: protein stability index

[[record]]
variantdescriptor = "H16L"
reportedmetric = "protein stability index"
measurednumber = 2.61

[[record]]
variantdescriptor = "C20L"
reportedmetric = "protein stability index"
measurednumber = 4.58

[[record]]
variantdescriptor = "S2C"
reportedmetric = "protein stability index"
measurednumber = 2.64

[[record]]
variantdescriptor = "P23I"
reportedmetric = "protein stability index"
measurednumber = 2.44

[[record]]
variantdescriptor = "F19C"
reportedmetric = "protein stability index"
measurednumber = 2.12

[[record]]
variantdescriptor = "H12I"
reportedmetric = "protein stability index"
measurednumber = 2.53

[[record]]
variantdescriptor = "D17V"
reportedmetric = "protein stability index"
measurednumber = 2.33

[[record]]
variantdescriptor = "T8C"
reportedmetric = "protein stability index"
measurednumber = 2.93

[[record]]
variantdescriptor = "M22K"
reportedmetric = "protein stability index"
measurednumber = 4

[[record]]
variantdescriptor = "P10W"
reportedmetric = "protein stability index"
measurednumber = 2.37

[[record]]
variantdescriptor = "H12Q"
reportedmetric = "protein stability index"
measurednumber = 2.69

[[record]]
variantdescriptor = "D14I"
reportedmetric = "protein stability index"
measurednumber = 1.8

[[record]]
variantdescriptor = "P10T"
reportedmetric = "protein stability index"
measurednumber = 2.56

[[record]]
variantdescriptor = "E18F"
reportedmetric = "protein stability index"
measurednumber = 2.12

[[record]]
variantdescriptor = "R4L"
reportedmetric = "protein stability index"
measurednumber = 2.73

[[record]]
variantdescriptor = "A5Q"
reportedmetric = "protein stability index"
measurednumber = 2.5

[[record]]
variantdescriptor = "E18H"
reportedmetric = "protein stability index"
measurednumber = 2.32

[[record]]
variantdescriptor = "H16W"
reportedmetric = "protein stability index"
measurednumber = 2.32

[[record]]
variantdescriptor = "S2T"
reportedmetric = "protein stability index"
measurednumber = 2.04

[[record]]
variantdescriptor = "H13G"
reportedmetric = "protein stability index"
measurednumber = 2.67

[[record]]
variantdescriptor = "T8W"
reportedmetric = "protein stability index"
measurednumber = 1.99

[[record]]
variantdescriptor = "D14G"
reportedmetric = "protein stability index"
measurednumber = 2.23

[[record]]
variantdescriptor = "R4Q"
reportedmetric = "protein stability index"
measurednumber = 3.06

[[record]]
variantdescriptor = "H12S"
reportedmetric = "protein stability index"
measurednumber = 2.8

[[record]]
variantdescriptor = "H16S"
reportedmetric = "protein stability index"
measurednumber = 2.54

[[record]]
variantdescriptor = "D9E"
reportedmetric = "protein stability index"
measurednumber = 2.48

[[record]]
variantdescriptor = "A5K"
reportedmetric = "protein stability index"
measurednumber = 2.94

[[record]]
variantdescriptor = "T8K"
reportedmetric = "protein stability index"
measurednumber = 2.28

[[record]]
variantdescriptor = "L3T"
reportedmetric = "protein stability index"
measurednumber = 2.22

[[record]]
variantdescriptor = "F19N"
reportedmetric = "protein stability index"
measurednumber = 2.27

[[record]]
variantdescriptor = "D9W"
reportedmetric = "protein stability index"
measurednumber = 2.52

[[record]]
variantdescriptor = "H1F"
reportedmetric = "protein stability index"
measurednumber = 2.24

[[record]]
variantdescriptor = "S2Q"
reportedmetric = "protein stability index"
measurednumber = 2.6

[[record]]
variantdescriptor = "M22R"
reportedmetric = "protein stability index"
measurednumber = 3.24

[[record]]
variantdescriptor = "P11C"
reportedmetric = "protein stability index"
measurednumber = 2.44

[[record]]
variantdescriptor = "L3W"
reportedmetric = "protein stability index"
measurednumber = 2.23

[[record]]
variantdescriptor = "R4C"
reportedmetric = "protein stability index"
measurednumber = 2.69

[[record]]
variantdescriptor = "A5H"
reportedmetric = "protein stability index"
measurednumber = 2.54

[[record]]
variantdescriptor = "E18V"
reportedmetric = "protein stability index"
measurednumber = 2.58

[[record]]
variantdescriptor = "L21F"
reportedmetric = "protein stability index"
measurednumber = 2.21

[[record]]
variantdescriptor = "F19P"
reportedmetric = "protein stability index"
measurednumber = 2.33

[[record]]
variantdescriptor = "M22E"
reportedmetric = "protein stability index"
measurednumber = 3.21

[[record]]
variantdescriptor = "P11F"
reportedmetric = "protein stability index"
measurednumber = 2.44

[[record]]
variantdescriptor = "H15L"
reportedmetric = "protein stability index"
measurednumber = 2.33

[[record]]
variantdescriptor = "D14Y"
reportedmetric = "protein stability index"
measurednumber = 2.29

[[record]]
variantdescriptor = "H12Y"
reportedmetric = "protein stability index"
measurednumber = 2.46

[[record]]
variantdescriptor = "P11W"
reportedmetric = "protein stability index"
measurednumber = 2.16

[[record]]
variantdescriptor = "P11V"
reportedmetric = "protein stability index"
measurednumber = 2.21

[[record]]
variantdescriptor = "H1I"
reportedmetric = "protein stability index"
measurednumber = 2.75

[[record]]
variantdescriptor = "P10D"
reportedmetric = "protein stability index"
measurednumber = 2.88

[[record]]
variantdescriptor = "H16V"
reportedmetric = "protein stability index"
measurednumber = 2.98

[[record]]
variantdescriptor = "L3Q"
reportedmetric = "protein stability index"
measurednumber = 2.78

[[record]]
variantdescriptor = "L3Y"
reportedmetric = "protein stability index"
measurednumber = 2.38

[[record]]
variantdescriptor = "H15E"
reportedmetric = "protein stability index"
measurednumber = 3

[[record]]
variantdescriptor = "P23R"
reportedmetric = "protein stability index"
measurednumber = 3.16

[[record]]
variantdescriptor = "E18M"
reportedmetric = "protein stability index"
measurednumber = 2.15

[[record]]
variantdescriptor = "H15V"
reportedmetric = "protein stability index"
measurednumber = 2.81

[[record]]
variantdescriptor = "V6D"
reportedmetric = "protein stability index"
measurednumber = 2.64

[[record]]
variantdescriptor = "C20T"
reportedmetric = "protein stability index"
measurednumber = 3.61

[[record]]
variantdescriptor = "H1L"
reportedmetric = "protein stability index"
measurednumber = 3.11

[[record]]
variantdescriptor = "E18W"
reportedmetric = "protein stability index"
measurednumber = 2.61

[[record]]
variantdescriptor = "S2A"
reportedmetric = "protein stability index"
measurednumber = 2.31

[[record]]
variantdescriptor = "A5S"
reportedmetric = "protein stability index"
measurednumber = 2.87

[[record]]
variantdescriptor = "V6A"
reportedmetric = "protein stability index"
measurednumber = 3

[[record]]
variantdescriptor = "H13I"
reportedmetric = "protein stability index"
measurednumber = 2.39

[[record]]
variantdescriptor = "V6K"
reportedmetric = "protein stability index"
measurednumber = 2.72

[[record]]
variantdescriptor = "L21N"
reportedmetric = "protein stability index"
measurednumber = 3.18

[[record]]
variantdescriptor = "P23E"
reportedmetric = "protein stability index"
measurednumber = 4.61

[[record]]
variantdescriptor = "H16F"
reportedmetric = "protein stability index"
measurednumber = 2.65

[[record]]
variantdescriptor = "H1M"
reportedmetric = "protein stability index"
measurednumber = 2.8

[[record]]
variantdescriptor = "P23A"
reportedmetric = "protein stability index"
measurednumber = 3.09

[[record]]
variantdescriptor = "H12F"
reportedmetric = "protein stability index"
measurednumber = 2.62

[[record]]
variantdescriptor = "E18C"
reportedmetric = "protein stability index"
measurednumber = 2.85

[[record]]
variantdescriptor = "P10G"
reportedmetric = "protein stability index"
measurednumber = 2.46

[[record]]
variantdescriptor = "R4M"
reportedmetric = "protein stability index"
measurednumber = 2.45

[[record]]
variantdescriptor = "S7F"
reportedmetric = "protein stability index"
measurednumber = 2.23

[[record]]
variantdescriptor = "H13K"
reportedmetric = "protein stability index"
measurednumber = 2.33

[[record]]
variantdescriptor = "S2R"
reportedmetric = "protein stability index"
measurednumber = 2.73

[[record]]
variantdescriptor = "L21Q"
reportedmetric = "protein stability index"
measurednumber = 3.42

